Recorded values, source the supplement of paper PMC9233669.

# Tested on: biotinyl-Trp-oxazolone
# Protocol Summary: self-aminoacylation, catalytic enhancement (BWO) (fold over background); higher = more active; k-Seq, kA / k0A0; sequences stand for … in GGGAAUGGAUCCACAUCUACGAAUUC…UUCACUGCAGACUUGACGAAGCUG
Variants at the floor of the assay were thinned out.
Please enter true (1) where self-aminoacylation is greater than or equal to 0.8, and false (0) where it is lower.

hey, is self-aminoacylation for this one >= 0.8? AAUCUCCUAGGUCAUCGGGUG [Fam2.2 aminoacylation ribozyme variant]
true (1)

Say whether AUUACCCGGGUCAGCGAGUGA [Fam2.1 aminoacylation ribozyme variant] shows self-aminoacylation of 0.8 or more.
true (1)

Say whether AGUCACCUAGGUCAUCUGGUG [Fam2.2 aminoacylation ribozyme variant] shows self-aminoacylation of 0.8 or more.
true (1)

Determine whether this sequence has self-aminoacylation no lower than 0.8: AUUUAACUAGGUCAUCGGGUG [Fam2.2 aminoacylation ribozyme variant]
true (1)

Reported self-aminoacylation reaches at least 0.8 for AAGUUUGCUAUUAGUCGCCAG [Fam3.1 aminoacylation ribozyme variant] ?
true (1)

Threshold query (self-aminoacylation >= 0.8) on AAGUUGGCUAAUAGUCGCACG [Fam3.1 aminoacylation ribozyme variant]
true (1)

Reported self-aminoacylation at or above 0.8? AAAUUUCCUAAUAGUCGCAAG [Fam3.1 aminoacylation ribozyme variant]
true (1)

Hi team, for CCACACGCCAAGCAAUCGGUC [Fam1B.1 aminoacylation ribozyme variant] , is the recorded self-aminoacylation at or above 0.8?
false (0)

Does the reported self-aminoacylation for AUUUCCCUGGUCAUCGAGUGU [Fam2.1 aminoacylation ribozyme variant] fall at or above the 0.8 mark?
true (1)

Check the entry CCACACUUCAAUCCAUCGGUC [Fam1B.1 aminoacylation ribozyme variant] : does self-aminoacylation equal or exceed 0.8?
false (0)

Does self-aminoacylation meet or surpass 0.8 for CUACUUCAAACAUUGGGUCUG [Fam1A.1 aminoacylation ribozyme variant] ?
false (0)

Evaluate CCACACUUCAUGCGAUCGGUC [Fam1B.1 aminoacylation ribozyme variant] : self-aminoacylation at minimum 0.8?
true (1)

Say whether CCCCACUUCAAGCAAUCGAUC [Fam1B.1 aminoacylation ribozyme variant] shows self-aminoacylation of 0.8 or more.
true (1)

Dear colleague, could you confirm whether AUUCCCCUAGGUCAUCGCGUG [Fam2.2 aminoacylation ribozyme variant] has self-aminoacylation at or above 0.8?
true (1)

Quick check, self-aminoacylation >= 0.8? CUACUUCAAACAAUCGUUCUA [Fam1A.1 aminoacylation ribozyme variant]
false (0)

Determine whether measured self-aminoacylation meets or exceeds 0.8 for AUUACCCUGGUCAUCAAGUGC [Fam2.1 aminoacylation ribozyme variant]
false (0)

Is self-aminoacylation at least 0.8? Consider CUACUUCAAACAGUCGGUAUG [Fam1A.1 aminoacylation ribozyme variant]
false (0)

Hello, I need to know if AUUCAUUUAGGUCAUCGGGUG [Fam2.2 aminoacylation ribozyme variant] has measured self-aminoacylation not below 0.8. Thanks!
true (1)

Please tell me: is the sequence CCACACUUCAACCAAUCGGUA [Fam1B.1 aminoacylation ribozyme variant] at or over 0.8 in terms of self-aminoacylation?
true (1)

Identify whether the reported self-aminoacylation of the following sequence is 0.8 or greater: CUACUUCAAACGAGCGGUCUG [Fam1A.1 aminoacylation ribozyme variant]
false (0)

// inclusive: self-aminoacylation at least 0.8? input: CCACUUCAAACAAUCGGUCGG [Fam1A.1 aminoacylation ribozyme variant]
true (1)

Quick check: does AAGUUUGCUAAGAGUCGAAAG [Fam3.1 aminoacylation ribozyme variant] have self-aminoacylation greater than or equal to 0.8?
false (0)

Is the recorded value of self-aminoacylation equal to or greater than 0.8 for this sequence? GUACUUCAAACAAUCGAUCUG [Fam1A.1 aminoacylation ribozyme variant]
true (1)

For this sequence, is measured self-aminoacylation 0.8 or higher? CUACGUCAAACAAUGGGUCUG [Fam1A.1 aminoacylation ribozyme variant]
true (1)

Does the sequence AUUACCCUUGUCAUCGAGUCA [Fam2.1 aminoacylation ribozyme variant] have recorded self-aminoacylation that is 0.8 or more?
false (0)

Record AUUAUCCUGGUCAUCCAGUGA [Fam2.1 aminoacylation ribozyme variant] ; criterion: self-aminoacylation no lower than 0.8. Met?
true (1)

Is it the case that GCACACUUCAAGCAAUCGGGC [Fam1B.1 aminoacylation ribozyme variant] has self-aminoacylation reaching or exceeding 0.8?
true (1)

Does the sequence AAGUUAGCUAUUAGUCGCAAG [Fam3.1 aminoacylation ribozyme variant] have recorded self-aminoacylation that is 0.8 or more?
true (1)
